Assay: self-splicing fitness, log relative to wild type (ln ratio); higher = more splicing; Tetrahymena group I intron in knt gene, E. coli kanamycin selection, DiMSum; sequences stand for … in CUCUCU…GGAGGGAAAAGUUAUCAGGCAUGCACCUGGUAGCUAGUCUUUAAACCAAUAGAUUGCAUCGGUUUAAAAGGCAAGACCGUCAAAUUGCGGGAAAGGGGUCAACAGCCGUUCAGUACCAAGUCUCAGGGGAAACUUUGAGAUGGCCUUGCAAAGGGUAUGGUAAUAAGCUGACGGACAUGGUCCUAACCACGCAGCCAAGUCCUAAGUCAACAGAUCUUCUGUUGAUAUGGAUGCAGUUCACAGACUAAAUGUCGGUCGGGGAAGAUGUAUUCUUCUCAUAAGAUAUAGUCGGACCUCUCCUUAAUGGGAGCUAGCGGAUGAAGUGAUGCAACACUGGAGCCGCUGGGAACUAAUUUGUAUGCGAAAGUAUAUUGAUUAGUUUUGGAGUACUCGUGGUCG;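 further: selection with 25 µg/mL kanamycin versus none on LB agar overnight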
Details: 37 °C
Lab note: compare self-splicing fitness (ln) against -2. Equal or greater, write yes (1). Smaller, write no (0).

Challenge: Evaluate `AGACAGCAAUAUUACGAUAG` : self-splicing fitness (ln) at minimum -2?
Response given: yes (1)

Challenge: Evaluate `GUCGAGCAAUAUUACGGAGA` : self-splicing fitness (ln) at minimum -2?
Response given: no (0)

Challenge: Evaluate `AGGGAGCAAUAUUACGAACC` : self-splicing fitness (ln) at minimum -2?
Response given: yes (1)

Challenge: Evaluate `GCGUAGCAAUAUUACGAGCA` : self-splicing fitness (ln) at minimum -2?
Response given: yes (1)

Challenge: Evaluate `UGGUAGCAAUAUUACGGAGC` : self-splicing fitness (ln) at minimum -2?
Response given: yes (1)

Challenge: Evaluate `AAGAAGCAAUAUUACGAGCC` : self-splicing fitness (ln) at minimum -2?
Response given: no (0)

Challenge: Evaluate `CAGCAGCAAUAUUACGGUGG` : self-splicing fitness (ln) at minimum -2?
Response given: yes (1)

Challenge: Evaluate `AUCUAGCAAUAUUACGAAAU` : self-splicing fitness (ln) at minimum -2?
Response given: yes (1)

Challenge: Evaluate `AGGCAGCAAUAUUACGUAGG` : self-splicing fitness (ln) at minimum -2?
Response given: yes (1)

Challenge: Evaluate `UUUGAGCAAUAUUACGAAAA` : self-splicing fitness (ln) at minimum -2?
Response given: yes (1)

Challenge: Evaluate `UCCGAGCAAUAUUACGAGGA` : self-splicing fitness (ln) at minimum -2?
Response given: no (0)

Challenge: Evaluate `CUGGAGCAAUAUUACGCUCA` : self-splicing fitness (ln) at minimum -2?
Response given: yes (1)

Challenge: Evaluate `AUCUAGCAAUAUUACGAAAG` : self-splicing fitness (ln) at minimum -2?
Response given: no (0)

Challenge: Evaluate `ACGUAGCAAUAUUACGUAGC` : self-splicing fitness (ln) at minimum -2?
Response given: no (0)

Challenge: Evaluate `AAGAAGCAAUAUUACGACGC` : self-splicing fitness (ln) at minimum -2?
Response given: yes (1)

Challenge: Evaluate `GUAGAGCAAUAUUACGGUAU` : self-splicing fitness (ln) at minimum -2?
Response given: yes (1)

Challenge: Evaluate `CCCAAGCAAUAUUACGCUAU` : self-splicing fitness (ln) at minimum -2?
Response given: no (0)

Challenge: Evaluate `ACUAAGCAAUAUUACGGGGA` : self-splicing fitness (ln) at minimum -2?
Response given: yes (1)

Challenge: Evaluate `CCAGAGCAAUAUUACGGGAA` : self-splicing fitness (ln) at minimum -2?
Response given: yes (1)

Challenge: Evaluate `GAACAGCAAUAUUACGAUUG` : self-splicing fitness (ln) at minimum -2?
Response given: yes (1)

Challenge: Evaluate `GACGAGCAAUAUUACGGAGA` : self-splicing fitness (ln) at minimum -2?
Response given: no (0)

Challenge: Evaluate `ACCUAGCAAUAUUACGAUCG` : self-splicing fitness (ln) at minimum -2?
Response given: yes (1)

Challenge: Evaluate `UCGAAGCAAUAUUACGGAAA` : self-splicing fitness (ln) at minimum -2?
Response given: yes (1)

Challenge: Evaluate `UAUAAGCAAUAUUACGGGGU` : self-splicing fitness (ln) at minimum -2?
Response given: no (0)

Challenge: Evaluate `AAGAAGCAAUAUUACGCAUG` : self-splicing fitness (ln) at minimum -2?
Response given: yes (1)

Challenge: Evaluate `CCCUAGCAAUAUUACGUUGU` : self-splicing fitness (ln) at minimum -2?
Response given: no (0)

Challenge: Evaluate `AUUGAGCAAUAUUACGCAGC` : self-splicing fitness (ln) at minimum -2?
Response given: no (0)

----------
Would you kindly list self-splicing fitness (ln) for each of these sequences?
Assay: self-splicing fitness, log relative to wild type (ln ratio); higher = more splicing; Tetrahymena group I intron in knt gene, E. coli kanamycin selection, DiMSum; sequences stand for … in CUCUCU…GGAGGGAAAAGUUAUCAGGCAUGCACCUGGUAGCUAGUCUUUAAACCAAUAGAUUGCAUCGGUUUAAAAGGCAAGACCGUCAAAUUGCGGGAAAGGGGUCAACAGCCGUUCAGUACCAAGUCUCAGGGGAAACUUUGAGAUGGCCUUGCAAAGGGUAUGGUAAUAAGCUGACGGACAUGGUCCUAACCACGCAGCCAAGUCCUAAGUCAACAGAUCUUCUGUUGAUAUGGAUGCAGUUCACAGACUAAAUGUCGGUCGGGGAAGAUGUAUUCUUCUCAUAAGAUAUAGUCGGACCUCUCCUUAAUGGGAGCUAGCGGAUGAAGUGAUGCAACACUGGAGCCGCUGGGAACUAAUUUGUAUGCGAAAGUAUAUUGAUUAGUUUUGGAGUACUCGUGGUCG
Conditions: 30 °C
Give your answer as a number; write no unit.

Challenge: Look up self-splicing fitness (ln): `CUGAAGCAAUAUUACGCCUG`
Response given: -0.0552

Challenge: Look up self-splicing fitness (ln): `AUUUAGCAAUAUUACGAAGU`
Response given: -1.91

Challenge: Look up self-splicing fitness (ln): `UGUGAGCAAUAUUACGUGGU`
Response given: -3.75

Challenge: Look up self-splicing fitness (ln): `CGUCAGCAAUAUUACGCGAG`
Response given: -4.12

Challenge: Look up self-splicing fitness (ln): `GAACAGCAAUAUUACGACCC`
Response given: -0.0445

Challenge: Look up self-splicing fitness (ln): `GUCUAGCAAUAUUACGGCCC`
Response given: -2.32

Challenge: Look up self-splicing fitness (ln): `CUGCAGCAAUAUUACGGCUU`
Response given: -4.37

Challenge: Look up self-splicing fitness (ln): `UAGCAGCAAUAUUACGCCAC`
Response given: -3.82

Challenge: Look up self-splicing fitness (ln): `UCGUAGCAAUAUUACGAUUU`
Response given: -3.1

----------
Test: self-splicing fitness, log relative to wild type (ln ratio); higher = more splicing; Tetrahymena group I intron in knt gene, E. coli kanamycin selection, DiMSum; sequences stand for … in CUCUCU…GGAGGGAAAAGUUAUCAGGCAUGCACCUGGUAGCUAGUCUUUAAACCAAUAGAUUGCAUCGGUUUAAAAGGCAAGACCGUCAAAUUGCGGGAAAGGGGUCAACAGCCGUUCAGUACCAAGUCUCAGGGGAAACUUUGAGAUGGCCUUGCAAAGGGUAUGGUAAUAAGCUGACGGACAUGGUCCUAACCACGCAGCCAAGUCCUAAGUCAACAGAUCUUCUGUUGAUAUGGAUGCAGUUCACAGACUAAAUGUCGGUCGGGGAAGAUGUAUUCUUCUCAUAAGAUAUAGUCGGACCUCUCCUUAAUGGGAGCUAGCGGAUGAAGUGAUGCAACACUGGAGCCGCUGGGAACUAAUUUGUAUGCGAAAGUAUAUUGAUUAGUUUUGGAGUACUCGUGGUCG
Details: 37 °C
Lab note: compare self-splicing fitness (ln) against -0.7. Equal or greater, write True. Smaller, write False.

Challenge: Evaluate `GUUAAGCAAUAUUACGUAUG` : self-splicing fitness (ln) at minimum -0.7?
Response given: False

Challenge: Evaluate `AAACAGCAAUAUUACGUUUU` : self-splicing fitness (ln) at minimum -0.7?
Response given: False

Challenge: Evaluate `AGGUAGCAAUAUUACGGGGA` : self-splicing fitness (ln) at minimum -0.7?
Response given: False

Challenge: Evaluate `CGCAAGCAAUAUUACGUUAA` : self-splicing fitness (ln) at minimum -0.7?
Response given: False

Challenge: Evaluate `UUUGAGCAAUAUUACGACGA` : self-splicing fitness (ln) at minimum -0.7?
Response given: True

Challenge: Evaluate `GAUGAGCAAUAUUACGGACU` : self-splicing fitness (ln) at minimum -0.7?
Response given: False

Challenge: Evaluate `GCUGAGCAAUAUUACGGUCG` : self-splicing fitness (ln) at minimum -0.7?
Response given: False

Challenge: Evaluate `UGUCAGCAAUAUUACGGCAU` : self-splicing fitness (ln) at minimum -0.7?
Response given: False

Challenge: Evaluate `GGUGAGCAAUAUUACGGUGC` : self-splicing fitness (ln) at minimum -0.7?
Response given: False

Challenge: Evaluate `ACCCAGCAAUAUUACGUUUC` : self-splicing fitness (ln) at minimum -0.7?
Response given: False

Challenge: Evaluate `AGAAAGCAAUAUUACGUCCG` : self-splicing fitness (ln) at minimum -0.7?
Response given: True

Challenge: Evaluate `CUACAGCAAUAUUACGCGAU` : self-splicing fitness (ln) at minimum -0.7?
Response given: True

Challenge: Evaluate `AACCAGCAAUAUUACGAUUC` : self-splicing fitness (ln) at minimum -0.7?
Response given: True

Challenge: Evaluate `AUUAAGCAAUAUUACGGGGA` : self-splicing fitness (ln) at minimum -0.7?
Response given: False

Origin of values: the supplement of paper PMC7877785
